B1: glmS ribozyme (parent)
chain: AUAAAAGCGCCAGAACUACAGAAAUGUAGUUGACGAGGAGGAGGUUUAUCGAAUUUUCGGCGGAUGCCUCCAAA

# Variants of: B1
# assay.notes: self-cleavage kobs at 2500 uM GlcN6P; higher = faster cleavage; RNA array
# test.parameters: with glucosamine-6-phosphate
This sample holds only a part of the variants without activity.
Would you mind telling me the reported self-cleavage kobs at 2500 uM GlcN6P of each entry?
Record the value in s⁻¹, omitting the unit from your answer.

Tell us which self-cleavage kobs at 2500 uM GlcN6P value is on record for G29A U56A A64G
0.00201

Retrieve self-cleavage kobs at 2500 uM GlcN6P measured for U45G U57A and print it.
5.34e-05

Look up and state reported self-cleavage kobs at 2500 uM GlcN6P for U30A U55C
0.00471

Fill in reported self-cleavage kobs at 2500 uM GlcN6P for this entry: A48U C70A
3.28e-05

Annotate the variant G29U U46A with its measured self-cleavage kobs at 2500 uM GlcN6P.
0.000184

Please give the documented self-cleavage kobs at 2500 uM GlcN6P of G40A A64G
0.00188

Specify reported self-cleavage kobs at 2500 uM GlcN6P for the variant shown: U31A A52G
0.000305

Write down self-cleavage kobs at 2500 uM GlcN6P measured for item U30A C70U
0.00125

Given U30A U55C G66C , respond with its self-cleavage kobs at 2500 uM GlcN6P.
0.000101

Indicate the recorded self-cleavage kobs at 2500 uM GlcN6P value for this variant: A14G G40A G41U G66A
0.000356

Find the measured self-cleavage kobs at 2500 uM GlcN6P of U55G C61A G66C C70A and report it.
8.3e-05

Provide only the value of recorded self-cleavage kobs at 2500 uM GlcN6P for G13U U47G
0.000158

Answer with the recorded self-cleavage kobs at 2500 uM GlcN6P for the variant listed here: G13A C16U G29U
5.93e-05

Using the record for C11U C16U C71G , state its measured self-cleavage kobs at 2500 uM GlcN6P.
0.000127

Please report the measured self-cleavage kobs at 2500 uM GlcN6P for U56A C67G
0.000905

Identify measured self-cleavage kobs at 2500 uM GlcN6P associated with U31G G44A
5.95e-05

Provide one value: measured self-cleavage kobs at 2500 uM GlcN6P of A6G U31C
5.13e-05

Given U45A U55A A64G , respond with its self-cleavage kobs at 2500 uM GlcN6P.
0.00972

Provide measured self-cleavage kobs at 2500 uM GlcN6P value, entry: A39C U46C U56C
0.000196

Quote self-cleavage kobs at 2500 uM GlcN6P reported for U45A C67G please.
0.000606

Assign self-cleavage kobs at 2500 uM GlcN6P to the following record: U45C U47C
0.000515

Determine its reported self-cleavage kobs at 2500 uM GlcN6P: A15C C67U
0.00177

Look up and state reported self-cleavage kobs at 2500 uM GlcN6P for C16U C67A
0.00166

Tell me its self-cleavage kobs at 2500 uM GlcN6P given G32A G44U C67G as the entry.
0.00127

Supply measured self-cleavage kobs at 2500 uM GlcN6P of C50U U55A C68G in your reply.
0.00018

Indicate its recorded self-cleavage kobs at 2500 uM GlcN6P; the variant in question is A12U A14C U47A
0.00107

Give reported self-cleavage kobs at 2500 uM GlcN6P value for A12U G66C
0.00145

Output self-cleavage kobs at 2500 uM GlcN6P of G41A A48U
3.76e-05

Supply self-cleavage kobs at 2500 uM GlcN6P value. Item: U55C U56A
0.0131

Consider the variant C11U U46C and give its recorded self-cleavage kobs at 2500 uM GlcN6P.
3.71e-05

Give a short answer stating reported self-cleavage kobs at 2500 uM GlcN6P for G13A C67A .
0.000133

Quick one: give measured self-cleavage kobs at 2500 uM GlcN6P for A48G U69C
9.27e-05

Please give measured self-cleavage kobs at 2500 uM GlcN6P of the following entry: G40A C68U
4.58e-05
